Species: Homo sapiens
PROTOCOL TEXT: Selectivity index, ratio of inhibition of human mu opioid receptor to inhibition of human kappa opioid receptor
Entries annotated with measured Selectivity ratio
Lab note: jot the number down without any unit.

{"SMILES STRUCTURE": "Nc1ccc2c(c1)[C@@]13CCCC[C@H]1[C@@H](C2)N(CC1CCC1)CC3", "READOUT NUMBER": 2}

Query block: Read off the recorded Selectivity ratio for `Oc1cccc(CNc2ccc3c(c2)C[C@@H]2[C@@H]4CCCC[C@]34CCN2CC2CC2)c1`
Result block: 150

Query block: Read off the recorded Selectivity ratio for `Nc1ccc2c(c1)[C@@]13CCCC[C@H]1[C@@H](C2)N(CC1CC1)CC3`
Result block: 7
